Experiment: qHTS for Inhibitors of Ubiquitin-specific Protease USP2a Using CHOP2 as the Reporter: Cytotox Assay (AID 652170); also: nearly all actives have a fitted effect of over 70% in size
Settings: HCT116 viability, CellTiter-Glo luminescence, 72 h; series mostly up to 46.1 µM
Records with an inconclusive call do not appear. Calls of active or inactive are those of the source. Calls follow the shape of the dose curve; as a rule, active = well fitted cell-killing curve with a large enough effect; inconclusive = small, poorly fitted or top-dose-only effect, or effect the other way; inactive = flat fitted curve, though single readings scatter.
Give one outcome, nothing more. List: active, inactive

Entry "CCCCC(=O)N1CCC(C(=O)Nc2ccc([S+](=O)([O-])Nc3nccs3)cc2)CC1" : call = ? inactive

Entry "CC(C)Oc1ccccc1C(=O)Nc1nc(-c2ccccc2)cs1" : call = ? inactive

Entry "O=C(Cc1ccccc1)Nc1ccc(S(=O)(=O)Nc2nccs2)cc1" : call = ? inactive

Entry O=C1CC(c2ccccc2)Cc2[nH]c(=O)c(-c3nc(-c4ccc(F)cc4)cs3)cc21 (stereo not given) : call = ? active

Entry "COc1ccc(C(=O)Nc2nc(-c3ccccc3)cs2)cc1NS(=O)(=O)c1ccc(C)cc1" : call = ? inactive

Entry "Cc1ccc(S(=O)(=O)Nc2cc(F)ccc2C(=O)Nc2nc(-c3ccccc3)cs2)cc1" : call = ? active

Entry "Clc1nc(CN2CCOCC2)nc2sc3c(c12)CCC3" : call = ? inactive

Entry "O=C(Nc1ccc([S+](=O)([O-])Nc2nccs2)cc1)c1ncn[nH]1" : call = ? inactive

Entry "O=S(=O)(Nc1nc(CN2CCOCC2)nc2sc3c(c12)CCCC3)c1ccc2ccccc2c1" : call = ? inactive

Entry "O=C(O)c1cccc(S(=O)(=O)Nc2nccs2)c1" : call = ? inactive

---

Experiment: Confirmation and Secondary Assay for Modulators of Hemoglobin Beta Chain Splicing at IVS2 705 locus (AID 930);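 also: HeLa cells stably expressing the EGFP-705 splicing reporter; GFP fluorescence per well restored by corrected splicing of the IVS2-705 intron in EGFP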
Details: HeLa EGFP-705 splicing reporter, GFP fluorescence, 48 h; series mostly up to 38.3 µM
Procedure: NIH Chemical Genomics Center [NCGC] NIH Molecular Libraries Screening Centers Network [MLSCN] […] NCGC Assay Protocol Summary: Confirmatory Screening. […] Plates were read in the Acumen Explorer (TTP Labtech) using 488 nm laser excitation and 500-520 nm emission PMT filter in a 1 x […] capture mode. Fluorescnet objects ranging in size from 5 to 250 uM were measured and the total peak GFP intensity for each well was used for data analysis. […]
Active and inactive are the calls of the source. Calls come from the whole dose curve; as a rule, active = well fitted activation curve with a large enough effect; inconclusive = small, poorly fitted or top-dose-only effect; inactive = flat fitted curve, though single readings scatter.
MEASURED METRIC: outcome

Look over these answered cases.
- COMPOUND: "CNc1nc(-c2ccccc2Cl)nc2ccccc12"
  ASSAY RESULT: "inactive"
- COMPOUND: "O=C1CC(c2ccc(O)cc2)Oc2ccccc21 (stereo not given)"
  ASSAY RESULT: "inactive"
- COMPOUND: "CN(C)Cc1ccccc1-c1nccc(N(C)C)n1"
  ASSAY RESULT: "inactive"
- COMPOUND: "N#Cc1cccc(-c2cc(NCc3cccs3)ncn2)c1"
  ASSAY RESULT: "inactive"

Look up outcome: "COCCNc1ccnc(-c2ccccc2CN(C)C)n1" inactive

Look up outcome: "CN(C)c1ccc(-c2nc(N(C)Cc3ccco3)c3ccccc3n2)cc1" inactive

Look up outcome: "Cc1noc(C)c1-c1cc(N(C)C)ncn1" inactive

Look up outcome: "COCCNc1ccnc(-c2cccc(NS(C)(=O)=O)c2)n1" inactive

Look up outcome: "COc1ccccc1-c1nccc(NCc2cnc(C)cn2)n1" inactive

Look up outcome: "COc1ccc2[nH]cc(CCNc3ncncc3-c3ccc(N(C)C)cc3)c2c1" inactive

Look up outcome: "CNc1ccnc(-c2ccccc2C(F)(F)F)n1" inactive

Look up outcome: "COc1ccccc1-c1cc(NCc2cccnc2)ncn1" inactive

Look up outcome: "COc1ccccc1-c1cncnc1-n1ccnc1" inactive

Look up outcome: "Cc1cccc(CNc2cc(-c3ccccc3CN(C)C)ncn2)c1" inactive

---

Experiment: qHTS Assay for Lipid Storage Modulators (AID 1519)
Details: Drosophila S3 cells, BODIPY lipid droplet/cell ratio, laser cytometry; measured here: cell count channel max response; cells loaded with oleic acid
Inconclusive results are not listed.
I would appreciate it if you labelled entries Met when max response is 20% or higher, otherwise Not met.

Form field: max response at least 20%? Entry: "CN1CCN(c2ncnc3ccc(-c4ccc(C(=O)N(C)C)cc4)cc23)CC1" Met

Form field: max response at least 20%? Entry: "COc1ccc(-n2c(=O)c(C)nc3cnc(Oc4ccccc4)nc32)cc1" Not met

Form field: max response at least 20%? Entry: "O=C(Oc1ccccc1)N1CCC2(CC1)CN(c1ccccc1)C2" Not met

Form field: max response at least 20%? Entry: "COc1ccc(NC(=O)N2CC3(CCN(C(=O)c4cccn4C)CC3)C2)cc1" Not met

Form field: max response at least 20%? Entry: "COc1cccc(Cn2c(=O)c(-c3cccs3)nc3cnc(N(C)C)nc32)c1" Met

Form field: max response at least 20%? Entry: "FC(F)(F)c1ccccc1-c1nccc(N2CCNCC2)n1" Not met

Form field: max response at least 20%? Entry: "O=C(Oc1ccccc1)N1CCC2(CCCN(c3ccccc3)C2)CC1" Not met

Form field: max response at least 20%? Entry: "CC(=O)N1CCC2(CC1)CCN(C(=O)Nc1cccc(F)c1)CC2" Not met

Form field: max response at least 20%? Entry: "CN(C)C(=O)c1ccc(-c2cc(Nc3ccccc3)ncn2)cc1" Met

Form field: max response at least 20%? Entry: "O=c1c(CCc2ccccc2)nc2cnc(N3CCNCC3)nc2n1CCc1ccccc1" Not met

Form field: max response at least 20%? Entry: "COc1ccc(-c2nc3cnc(Nc4ccccc4)nc3n(C[C@H]3CCCO3)c2=O)cc1" Not met

Form field: max response at least 20%? Entry: "COc1cccc(Cn2c(=O)cnc3cncnc32)c1" Not met

Form field: max response at least 20%? Entry: "CN(C)C(=O)c1ccc(-c2nc(NC3CCNCC3)c3ccccc3n2)cc1" Not met

Form field: max response at least 20%? Entry: "COc1ccc(NC(=O)N2CCC3(CC2)CCN(C(=O)c2csnn2)CC3)cc1" Not met

Form field: max response at least 20%? Entry: "O=C(Nc1ccccc1)Nc1ccccc1" Not met

Form field: max response at least 20%? Entry: "COC(=O)N1CCC[C@@]2(CCN(c3ccccn3)C2)C1" Not met

Form field: max response at least 20%? Entry: "COc1cccc(Cn2c(=O)c(-c3ccc(F)cc3)nc3cnc(N(C)C)nc32)c1" Met

Form field: max response at least 20%? Entry: "Cn1c(=O)c(-c2cccs2)nc2cncnc21" Not met

Form field: max response at least 20%? Entry: "COc1ccc(C(=O)N2CCC3(CC2)CN(C(=O)NC(C)C)C3)cc1" Not met

Form field: max response at least 20%? Entry: "COc1cccc(-c2cncnc2N(C)Cc2ccco2)c1" Met

Form field: max response at least 20%? Entry: "Cc1cn([C@H]2C[C@@H](N=[N+]=[N-])[C@@H](CO)O2)c(=O)[nH]c1=O" Not met

---

Experiment: Primary qHTS for inhibitors of nuclear receptor binding SET domain protein 2 (NSD2) in an RCH-ACV wild type WT cells (2C) (AID 1645877); also: nearly all actives have a fitted effect of over 70% in size
Details: RCH-ACV (leukaemia line) NSD2 WT (2C) viability, CellTiter-Glo, 72 h; series mostly up to 44.9 µM
Records with an inconclusive call do not appear. Activity calls are given as the source filed them. Calls follow the shape of the dose curve; as a rule, active = well fitted inhibition curve with a large enough effect; inconclusive = small, poorly fitted or top-dose-only effect; inactive = no such curve, though single readings can be large or run the other way.
Give one outcome, nothing more. List: active, inactive

Entry Cc1ccc(NC(=O)NCc2ccc3c(c2)CN(C2CCC(=O)NC2=O)C3=O)cc1Cl (stereo not given) : call = ? active

Entry "O=C(Nc1ccc(OC(F)(F)Cl)cc1)c1cnc(N2CC[C@@H](O)C2)c(-c2ccn[nH]2)c1" : call = ? active

Entry "COc1ccc(CNC(=O)c2cc(-c3cncc(Cl)c3)cnc2-c2ccccn2)nc1OC" : call = ? inactive

Entry "Cc1ccc(S(=O)(=O)Nc2cc(C(F)(F)F)ccc2C(=O)Nc2nc(-c3ccccc3)cs2)cc1" : call = ? active

Entry "O=c1oc2c(C3OCCCO3)c(O)ccc2c2c1CNCC2" : call = ? inactive

Entry "CN(C)C/C=C/C(=O)Nc1ccc(C(=O)N2CCC[C@@H](Nc3ncc(Cl)c(-c4c[nH]c5ccccc45)n3)C2)cc1" : call = ? active

Entry "O=C(NO)c1cnc(N2C[C@H]3C[C@@H]2CN3c2cc(C(F)(F)F)ccn2)nc1" : call = ? active

Entry "COc1ccc(C(=O)N2CCN(C(=O)/C=C/c3ccc(Br)cc3)CC2)cc1" : call = ? inactive

Entry "Cc1c(Cl)cccc1S(=O)(=O)Nc1nc(CCN2CCOCC2=O)cs1" : call = ? inactive

Entry "C=CC(=O)N1C[C@H](Nc2ncnc3[nH]ccc23)CC[C@@H]1C" : call = ? inactive

Entry "CCOc1ccc(Cc2cc([C@@H]3O[C@H](CO)[C@@H](O)[C@H](O)[C@H]3O)ccc2Cl)cc1" : call = ? inactive

Entry "CC(C)Oc1ccc(-c2nc(-c3cccc4c3CC[C@@H]4NCCO)no2)cc1C#N" : call = ? active

Entry "C[C@@H](Oc1cc(C(=O)Nc2ccc(C(=O)N3CCN(C)CC3)cc2)nnc1N)c1c(Cl)ccc(F)c1Cl" : call = ? active

Entry "CC(=O)N1CCN(c2ccc(NC(=O)Cc3cnc(-c4ccnc(F)c4)c(C)c3)nc2)CC1" : call = ? inactive

Entry "O=C(Nc1cnn2ccc(N3CCC[C@@H]3c3cc(F)ccc3F)nc12)N1CC[C@H](O)C1" : call = ? inactive

Entry "Cc1c(-c2cnccn2)ssc1=S" : call = ? active

Entry "C[C@H](NC(=O)/C(C#N)=C/c1cccc(Br)n1)c1ccccc1" : call = ? active

Entry CC1Cc2ccccc2N1C(=O)Cc1nc(N2CCOCC2)cc(=O)[nH]1 (stereo not given) : call = ? active

Entry "O=C(O)CNC(=O)c1nc(Cl)c2ccccc2c1O" : call = ? inactive

Entry "CN[C@@H](C)C(=O)N[C@H](C(=O)N1CCC[C@H]1C(=O)Nc1sc(-c2ncco2)nc1-c1ccccc1)C1CCCCC1" : call = ? inactive
